system: MCF7; assay: Cytotoxicity against human MCF7 cells at 15 uM after 72 hrs by MTT assay relative to control; format: functional; conditions: MCF7, 72 h, values are per cent of control
Could you please report measured viability, % of control at 15 µM for the items listed next?
Write it as a number; the unit % goes unstated.

State its viability, % of control at 15 µM on MCF7: CNC(=O)[C@@H]1Cc2c([nH]c3ccccc23)[C@H]2N(C)c3ccccc3C(=O)N12 94

Then this compound: CN1c2ccccc2C(=O)N2[C@@H](C(=O)N3CCOCC3)Cc3c([nH]c4ccccc34)[C@H]12 72

Then this compound: CN1c2ccccc2C(=O)N2[C@H](C(=O)N3CCCCC3)Cc3c([nH]c4ccccc34)[C@@H]12 85

Then this compound: CN1c2ccccc2C(=O)N2[C@H](C(=O)N3CCOCC3)Cc3c([nH]c4ccccc34)[C@@H]12 131

Then this compound: COC(=O)[C@@H]1Cc2c([nH]c3ccccc23)[C@H]2N(C)c3ccccc3C(=O)N12 90

Then this compound: CN1c2ccccc2C(=O)N2[C@@H](C(=O)O)Cc3c([nH]c4ccccc34)[C@H]12 103

Then this compound: CN1c2ccccc2C(=O)N2[C@H](C(=O)N3CCSCC3)Cc3c([nH]c4ccccc34)[C@@H]12 103

Then this compound: CN1c2ccccc2C(=O)N2CCc3c([nH]c4ccccc34)[C@@H]21 51

Then this compound: COC(=O)[C@H]1Cc2c([nH]c3ccccc23)[C@@H]2N(C)c3ccccc3C(=O)N12 96

Then this compound: CN1c2ccccc2C(=O)N2[C@@H](C(=O)N3CCCCC3)Cc3c([nH]c4ccccc34)[C@H]12 63

Then this compound: CN1CCN(C(=O)[C@H]2Cc3c([nH]c4ccccc34)[C@@H]3N(C)c4ccccc4C(=O)N23)CC1 74

Then this compound: CN1c2ccccc2C(=O)N2[C@@H](C(=O)N3CCSCC3)Cc3c([nH]c4ccccc34)[C@H]12 105

Then this compound: CN1CCN(C(=O)[C@@H]2Cc3c([nH]c4ccccc34)[C@H]3N(C)c4ccccc4C(=O)N23)CC1 68

Then this compound: CN1c2ccccc2C(=O)N2[C@H](C(=O)O)Cc3c([nH]c4ccccc34)[C@@H]12 128

Then this compound: CNC(=O)[C@H]1Cc2c([nH]c3ccccc23)[C@@H]2N(C)c3ccccc3C(=O)N12 108

Then this compound: CN1c2ccccc2C(=O)N2CCc3c([nH]c4ccccc34)[C@H]21 44

* * *

Could you please report measured inhibition for the items listed next?
Biological target: NAD-dependent protein deacetylase sirtuin-3, mitochondrial (Homo sapiens)
Sequence (whole entry): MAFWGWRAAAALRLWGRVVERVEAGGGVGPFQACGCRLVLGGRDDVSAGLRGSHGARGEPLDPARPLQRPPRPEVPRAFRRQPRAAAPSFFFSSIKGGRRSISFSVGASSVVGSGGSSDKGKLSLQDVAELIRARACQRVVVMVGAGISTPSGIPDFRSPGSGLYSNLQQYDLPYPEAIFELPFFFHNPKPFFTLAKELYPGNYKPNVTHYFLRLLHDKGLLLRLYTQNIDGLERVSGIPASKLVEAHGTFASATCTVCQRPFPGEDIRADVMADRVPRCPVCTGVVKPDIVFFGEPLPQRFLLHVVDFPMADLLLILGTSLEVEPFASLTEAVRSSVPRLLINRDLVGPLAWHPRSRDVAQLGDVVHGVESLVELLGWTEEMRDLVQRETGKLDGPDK
Assay: Inhibition of recombinant His-SIRT3 (unknown origin) using KI179 as substrate at 200 uM after 45 mins by fluorescence assay
Write it as a number; the unit % goes unstated.

What does the data say about its inhibition? Entry: CNC(=O)[C@@H]1Cc2c([nH]c3ccccc23)[C@H]2N(C)c3ccccc3C(=O)N12 26

Then this compound: COC(=O)[C@H]1Cc2c([nH]c3ccccc23)[C@@H]2N(C)c3ccccc3C(=O)N12 17

Then this compound: COC(=O)[C@@H]1Cc2c([nH]c3ccccc23)[C@H]2N(C)c3ccccc3C(=O)N12 21

Then this compound: CN1c2ccccc2C(=O)N2[C@H](C(=O)O)Cc3c([nH]c4ccccc34)[C@@H]12 61

From: ChEMBL document CHEMBL2440052
